- TARGET_OF_ASSAY: T1, full-length hCDCP1 with N-terminal c-Myc tag (expression vector GS01), on Ba/F3-hCDCP1 cells or … (human, UniProt Q9H5V8 30-836)
- T1 construct: also called human CDCP1; hCDCP1 forced expression cells
- T1 sequence: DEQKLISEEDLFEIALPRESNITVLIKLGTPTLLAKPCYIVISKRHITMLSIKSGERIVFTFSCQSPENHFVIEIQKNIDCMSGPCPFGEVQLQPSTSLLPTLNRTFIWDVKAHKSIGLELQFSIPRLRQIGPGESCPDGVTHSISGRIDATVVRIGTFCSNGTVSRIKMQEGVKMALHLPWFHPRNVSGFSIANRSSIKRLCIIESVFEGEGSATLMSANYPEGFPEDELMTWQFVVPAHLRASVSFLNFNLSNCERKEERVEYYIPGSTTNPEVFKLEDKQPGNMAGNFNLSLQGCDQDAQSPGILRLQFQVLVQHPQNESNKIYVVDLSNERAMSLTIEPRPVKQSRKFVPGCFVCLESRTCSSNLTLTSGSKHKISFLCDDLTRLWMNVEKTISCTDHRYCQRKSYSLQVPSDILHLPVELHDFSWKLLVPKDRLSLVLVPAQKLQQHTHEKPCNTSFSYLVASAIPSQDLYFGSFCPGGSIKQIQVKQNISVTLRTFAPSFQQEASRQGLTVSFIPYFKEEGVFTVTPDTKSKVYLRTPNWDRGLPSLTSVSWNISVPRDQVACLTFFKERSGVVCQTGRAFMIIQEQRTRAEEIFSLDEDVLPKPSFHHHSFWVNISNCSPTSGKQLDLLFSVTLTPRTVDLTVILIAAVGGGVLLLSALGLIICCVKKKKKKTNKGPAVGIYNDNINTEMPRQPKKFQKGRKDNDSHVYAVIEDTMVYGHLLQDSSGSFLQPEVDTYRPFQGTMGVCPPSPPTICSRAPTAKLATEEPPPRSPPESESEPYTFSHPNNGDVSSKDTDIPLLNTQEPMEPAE
- ASSAY: flow cytometry on Ba/F3-hCDCP1 cells
MEASURE: binding result

INSERT INTO results (binder, result) VALUES
  ('mh12A041HCori/LCoriB (antibody, human IgG1, kappa, V domains shown, mouse-human chimeric antibody, human IgG1/kappa constant regions) VH: EVQLQESGPGILQPSQTLSLTCSFSGFSLSTSGMGVSWIRQPSGKGLEWLAHIYWDDDKRYNPSLKSRLTISKDTSSNQVFLKITSVDTADTATYYCARSGSYYGSSLDCWGQGTTLTVSS VL: DVLMTQTPLSLPVSLGDQASISCRSSQNIVHSDGNTYLEWYLQKPGQSPKLLIYKVSNRFSGVPDRFSGSGSGTDFTLKISRVEAEDLGVYYCFQGSHVPWTFGGGTKLEIRR', 'binds'),
  ('mh12A041HCori/LCori (antibody, human IgG1, kappa, V domains shown, mouse-human chimeric antibody, human IgG1/kappa constant regions; also called mh12A041HCori/LCori-biotin (biotinylated form)) VH: EVQLQESGPGILQPSQTLSLTCSFSGFSLSTSGMGVSWIRQPSGKGLEWLAHIYWDDDKRYNPSLKSRLTISKDTSSNQVFLKITSVDTADTATYYCARSGSYYGSSLDCWGQGTTLTVSS VL: DVLMTQTPLSLPVSLGDQASISCRSSQSIVHSNGNTYLEWYLQKPGQSPKLLIYKVSNRFSGVPDRFSGSGSGTDFTLKISRVEAEDLGVYYCFQGSHVPWTFGGGTKLEIKR', 'binds'),
  ('h12A041VH2/VLB (antibody, human IgG1, kappa, V domains shown, humanized antibody, human IgG1/kappa constant regions) VH: QVTLRESGPALVKPTQTLTLTCTFSGFSLSTSGMGVSWIRQPPGKGLEWLAHIYWDDDKRYNPSLKSRLTISKDTSKNQVVLTMTNMDPVDTATYYCARSGSYYGSSLDSWGQGTTVTVSS VL: DIVMTQSPLSLPVTPGEPASISCRSSQNIVHSDGNTYLEWYLQKPGQSPQLLIYKVSNRFSGVPDRFSGSGSGTDFTLKISRVEAEDVGVYYCFQGSHVPWTFGGGTKVEIKR', 'binds');
